# System: NS5A chimeric genotype 1b Con1 replicon with genotype 4a ED43 strain NS5A gene
# test method notes: HCV genotype 4a NS5A chimeric replicon assay
# Type: cell-based
# stated conditions: Hepatitis C virus, 72 h, read-out: 4a (s) (nM)
Hi! Just check whether EC50 is below 0.03 nM. Below gives true (1), equal or above gives false (0).

Consider the following illustrative entries.
# compound, answer label
rows = [
    ("COC(=O)N[C@H](C(=O)N1[C@@H](C)CC[C@H]1c1nc2ccc3cc4c(cc3c2[nH]1)OCc1cc(-c2cnc([C@@H]3CC[C@H](C)N3C(=O)[C@@H](NC(=O)OC)C3CCOCC3)[nH]2)ccc1-4)C(C)C [Comp 7, reference compound]", "true (1)"),
    ("COC(=O)N[C@H](C(=O)N1[C@@H](C)CC[C@H]1c1ncc(-c2ccc3c(c2)COc2cc4c(ccc5nc([C@@H]6CC[C@H](C)N6C(=O)[C@@H](NC(=O)OC)C6(C)CCOCC6)[nH]c54)cc2-3)[nH]1)C(C)C", "true (1)"),
    ("COC(=O)N[C@H](C(=O)N1[C@@H](C)CC[C@H]1c1nc2ccc3cc4c(cc3c2[nH]1)OCc1cc(-c2cnc([C@@H]3CC[C@H](C)N3C(=O)[C@H](NC(=O)OC)[C@H]3C[C@@H](C)O[C@@H](C)C3)[nH]2)ccc1-4)C(C)C", "false (0)"),
    ("CC[C@H](C)[C@H](NC(=O)OC)C(=O)N1[C@@H](C)CC[C@H]1c1nc2ccc3cc4c(cc3c2[nH]1)OCc1cc(-c2cnc([C@@H]3CC[C@H](C)N3C(=O)[C@@H](NC(=O)OC)C3CCOCC3)[nH]2)ccc1-4 [Comp 12, reference compound]", "false (0)"),
    ("COC(=O)N[C@H](C(=O)N1[C@@H](C)CC[C@H]1c1ncc(-c2ccc3c(c2)COc2cc4c(ccc5nc([C@@H]6CC[C@H](C)N6C(=O)[C@@H](NC(=O)OC)C6CC(C)O[C@H](C)C6)[nH]c54)cc2-3)[nH]1)C(C)C (stereo in doubt)", "true (1)"),
    ("COC(=O)N[C@H](C(=O)N1[C@@H](C)CC[C@H]1c1ncc(-c2ccc3c(c2)COc2cc4c(ccc5nc([C@@H]6CCCN6C(=O)[C@@H](NC(=O)OC)C6C[C@@H](C)O[C@H](C)C6)[nH]c54)cc2-3)[nH]1)C(C)C (some centres unmarked)", "true (1)"),
    ("COC[C@H]1C[C@@H](c2nc3ccc4cc5c(cc4c3[nH]2)OCc2cc(-c3cnc([C@@H]4CC[C@H](C)N4C(=O)[C@@H](NC(=O)OC)C4C[C@@H](C)O[C@H](C)C4)[nH]3)ccc2-5)N(C(=O)[C@@H](NC(=O)OC)C2C[C@@H](C)O[C@H](C)C2)C1 (some centres unmarked)", "true (1)"),
]

Below: the item to evaluate.
Hi there! Is EC50 for COC(=O)N[C@H](C(=O)N1[C@H](c2nc3ccc4cc5c(cc4c3[nH]2)OCc2cc(-c3cnc([C@@H]4CC[C@H](C)N4C(=O)[C@@H](NC(=O)OC)C4C[C@@H](C)O[C@H](C)C4)[nH]3)ccc2-5)C[C@@H]2CCC[C@@H]21)C(C)C (some centres unmarked) below 0.03 nM, do you know?
true (1)

----------
# System: L31V/Y93H in genotype 1b NS5A replicon
# test method notes: Resistance mutant replicon assay, genotype 1b NS5A L31V/Y93H
# Type: cell-based, HCV
# stated conditions: Hepatitis C virus, read-out: 1b L31V/Y93H (nM)
recorded endpoint: EC50 (nM)
Give a bare numeral; the unit nM is implied.

In the examples that follow, each entry is paired with its recorded EC50.
# molecule, EC50, nM
data = [
    ("CC[C@H](C)[C@H](NC(=O)OC)C(=O)N1[C@@H](C)CC[C@H]1c1nc2ccc3cc4c(cc3c2[nH]1)OCc1cc(-c2cnc([C@@H]3CC[C@H](C)N3C(=O)[C@@H](NC(=O)OC)C3CCOCC3)[nH]2)ccc1-4 [Comp 12, reference compound]", 0.097),
    ("COC[C@H]1C[C@@H](c2ncc(-c3ccc4c(c3)COc3cc5c(ccc6nc([C@@H]7CC[C@H](C)N7C(=O)[C@@H](NC(=O)OC)C(C)C)[nH]c65)cc3-4)[nH]2)N(C(=O)[C@@H](NC(=O)OC)C2C[C@@H](C)O[C@H](C)C2)C1 (stereo partly drawn)", 0.668),
    ("COC(=O)N[C@H](C(=O)N1[C@@H](C)CC[C@H]1c1ncc(-c2ccc3c(c2)COc2cc4c(ccc5nc([C@@H]6CC[C@H](C)N6C(=O)[C@@H](NC(=O)OC)[C@H]6C[C@@H](C)O[C@@H](C)C6)[nH]c54)cc2-3)[nH]1)C(C)C", 11.6),
]

Requested read-out: EC50. Entry: COC(=O)N[C@H](C(=O)N1[C@@H](C)CC[C@H]1c1ncc(-c2ccc3c(c2)COc2cc4c(ccc5nc([C@@H]6CC[C@H](C)N6C(=O)[C@@H](NC(=O)OC)C6C[C@@H](C)O[C@H](C)C6)[nH]c54)cc2-3)[nH]1)C1C[C@@H](C)O[C@H](C)C1 (stereo partly drawn)
0.059

Requested read-out: EC50. Entry: CC[C@H](C)[C@H](NC(=O)OC)C(=O)N1[C@@H](C)CC[C@H]1c1ncc(-c2ccc3c(c2)COc2cc4c(ccc5nc([C@@H]6CC[C@H](C)N6C(=O)[C@@H](NC(=O)OC)C6C[C@@H](C)O[C@H](C)C6)[nH]c54)cc2-3)[nH]1 (stereo partly drawn)
0.498

Requested read-out: EC50. Entry: CC[C@H]1CC[C@@H](c2nc3ccc4cc5c(cc4c3[nH]2)OCc2cc(-c3cnc([C@@H]4CC[C@H](C)N4C(=O)[C@@H](NC(=O)OC)C(C)C)[nH]3)ccc2-5)N1C(=O)[C@@H](NC(=O)OC)C1C[C@@H](C)O[C@H](C)C1 (stereo partly drawn)
1.33

Requested read-out: EC50. Entry: CC[C@H]1C[C@@H](c2nc3ccc4cc5c(cc4c3[nH]2)OCc2cc(-c3cnc([C@@H]4CC[C@H](C)N4C(=O)[C@@H](NC(=O)OC)C(C)C)[nH]3)ccc2-5)N(C(=O)[C@@H](NC(=O)OC)C2CCOCC2)C1 [Comp 1, reference compound]
0.971

Requested read-out: EC50. Entry: COC(=O)N[C@H](C(=O)N1[C@@H](C)CC[C@H]1c1ncc(-c2ccc3c(c2)COc2cc4c(ccc5nc([C@@H]6CCCN6C(=O)[C@@H](NC(=O)OC)C6CCOCC6)[nH]c54)cc2-3)[nH]1)C(C)C [Comp 14, reference compound]
0.13

----------
# Test system: NS5A chimeric genotype 2a JFH-1 replicon with genotype 2a J6 strain NS5A gene (M31)
# test method notes: HCV genotype 2a J6 NS5A chimeric replicon assay, transient (t)
# Format: cell-based
# stated conditions: Hepatitis C virus, 72 h, read-out: 2a J6 (t) (nM)
# Experimental: Evaluation of cell-based anti-HCV activity: Antiviral potency (EC50) was determined using a Renilla luciferase (RLuc)-based HCV replicon reporter assay. […] 72 hours later, cells were lysed and Renilla luciferase activity quantified as recommended by the manufacturer (Promega-Madison, Wis.). […]
Reported EC50 is given for each of the following compounds.
Give a bare numeral; the unit nM is implied.

# compound, unit text, EC50
records = [
    ("COC[C@H]1C[C@@H](c2ncc(-c3ccc4c(c3)COc3cc5c(ccc6nc([C@@H]7CC[C@H](C)N7C(=O)[C@@H](NC(=O)OC)C7C[C@@H](C)O[C@H](C)C7)[nH]c65)cc3-4)[nH]2)N(C(=O)[C@@H](NC(=O)OC)C2C[C@@H](C)O[C@H](C)C2)C1 (some centres unmarked)", "nM", 0.055),
]

Now, please, on to the next compound.
Requested read-out: EC50. Entry: COC(=O)N[C@H](C(=O)N1[C@@H](C)CC[C@H]1c1ncc(-c2ccc3c(c2)COc2cc4c(ccc5nc([C@@H]6CC[C@H](C)N6C(=O)[C@@H](NC(=O)OC)C6CCOCC6)[nH]c54)cc2-3)[nH]1)C(C)C [Comp 5, reference compound]
0.012

----------
# System: NS5A chimeric genotype 2a JFH-1 replicon with genotype 2a J6 strain NS5A gene (M31)
# test method notes: HCV genotype 2a J6 NS5A chimeric replicon assay, transient (t)
# Type: cell-based
# stated conditions: Hepatitis C virus, 72 h, read-out: 2a J6 (t) (nM)
Reported EC50 is given for each of the following compounds.
Give a bare numeral; the unit nM is implied.

In the examples that follow, each entry is paired with its recorded EC50.
# compound, EC50, nM
records = [
    ("COC(=O)N[C@H](C(=O)N1[C@@H](C)CC[C@H]1c1ncc(-c2ccc3c(c2)COc2cc4c(ccc5nc([C@@H]6CC[C@H](C)N6C(=O)[C@@H](NC(=O)OC)C6CC(C)O[C@H](C)C6)[nH]c54)cc2-3)[nH]1)C(C)C (stereo in doubt)", 0.011),
    ("COC(=O)N[C@H](C(=O)N1[C@@H](C)CC[C@H]1c1ncc(-c2ccc3c(c2)COc2cc4c(ccc5nc([C@@H]6C[C@H](C)CN6C(=O)[C@@H](NC(=O)OC)C6C[C@@H](C)O[C@H](C)C6)[nH]c54)cc2-3)[nH]1)C(C)C (stereo partly shown)", 0.008),
    ("COC(=O)N[C@H](C(=O)N1[C@@H](C)CC[C@H]1c1ncc(-c2ccc3c(c2)COc2cc4c(ccc5nc([C@@H]6CC[C@H](C)N6C(=O)[C@@H](NC(=O)OC)C6(C)CCOCC6)[nH]c54)cc2-3)[nH]1)C(C)C", 1.02),
]

Now, please, on to the next compound.
Requested read-out: EC50. Entry: COC(=O)N[C@H](C(=O)N1[C@@H](C)CC[C@H]1c1nc2ccc3cc4c(cc3c2[nH]1)OCc1cc(-c2cnc([C@@H]3CC[C@H](C)N3C(=O)[C@@H](NC(=O)OC)[C@H]3C[C@@H](C)O[C@@H](C)C3)[nH]2)ccc1-4)C(C)C
0.017
